These data points were gathered from ChEMBL document CHEMBL1201862.

# Test system: UO-31
# ASSAY REMARKS: NCI tumour cell line growth inhibition, 48 h
Calls of active or inactive are those of the source. Rule as the data show it: active = GI50 up to about 1.1 µM and inactive = higher.
Assignment: determine reported GI50 for the given compounds.

Query: What value of GI50 has been reported for the following compound? `c1ccc2c(c1)cc1c3[nH]c4ccccc4c3ccn21`
Reply: > 10 µM (inactive)

Query: What value of GI50 has been reported for the following compound? `CN(C)Cc1cc(C=O)cc(CN(C)C)c1O`
Reply: > 100 µM (inactive)

Query: What value of GI50 has been reported for the following compound? `Cc1cc(NS(=O)(=O)c2ccc(Nc3c4ccccc4nc4c(C(=O)Nc5ccc(S(N)(=O)=O)cc5)cccc34)cc2)no1`
Reply: 80.9 µM (inactive)

Query: What value of GI50 has been reported for the following compound? CCCCOP1(=O)C=CC(Cl)=C(C)C1 (stereo unspecified)
Reply: 41.8 µM (inactive)

Query: What value of GI50 has been reported for the following compound? CC(=O)NCCCCCCNC(C)=O [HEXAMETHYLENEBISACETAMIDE]
Reply: 5250 µM (inactive)

Query: What value of GI50 has been reported for the following compound? `CC1=C(C#N)C(N)=C2C(C)=C(C#N)C(N)=C12`
Reply: > 100 µM (inactive)

====

# System: T47D
# ASSAY REMARKS: NCI tumour cell line growth inhibition, 48 h
Activity calls are given as the source filed them. Rule as the data show it: active = GI50 up to about 1.1 µM and inactive = higher.
MEASURED PARAMETER: GI50

Query: Param readout = GI50; param system = T47D; param query = `O=C1c2nc3n(c2C(=O)c2c1nc1n2CCC1)CCC3` ; response: value
Reply: > 10 µM (inactive)

Query: Param readout = GI50; param system = T47D; param query = `O=C(Cc1ccccc1)NNc1nc(NNC(=O)c2ccncc2)nc(Nc2ccccc2)n1` ; response: value
Reply: > 10 µM (inactive)

Query: Param readout = GI50; param system = T47D; param query = `C=C1OC(=O)[C@]2([C@@H](/C=C/C)C=CC(=O)[C@H]2O)[C@@H]1O` ; response: value
Reply: > 100 µM (inactive)

Query: Param readout = GI50; param system = T47D; param query = `O=C(NN=C1CCCCC1)Nc1ccccc1Cl` ; response: value
Reply: 29.5 µM (inactive)

Query: Param readout = GI50; param system = T47D; param query = COC(=O)C1=C(C)NC2(O)C=CC(=O)C3C(=O)N(c4ccccc4)C(=O)C132 (stereo not given) ; response: value
Reply: 36.8 µM (inactive)

Query: Param readout = GI50; param system = T47D; param query = `CO[C@H]1C[C@](C)(O)Cc2cc3c(c(O)c21)C(=O)c1c(O)cc2c(c1C3=O)O[C@@H]1O[C@@]2(C)[C@H](O)[C@@H](N(C)C)[C@@H]1O` ; response: value
Reply: 0.818 µM (active)

Query: Param readout = GI50; param system = T47D; param query = O=C(O)c1cccc(S(=O)(=O)NN2C(=O)CSC2c2ccccc2)c1 (stereo not given) ; response: value
Reply: > 100 µM (inactive)

Query: Param readout = GI50; param system = T47D; param query = CCOP(=O)(OCC)OC1CC(n2cnc3c(N(CC)CC)ncnc32)OC1CO[Si](C)(C)C(C)(C)C (stereo not given) ; response: value
Reply: 12 µM (inactive)

Query: Param readout = GI50; param system = T47D; param query = `CC1=NC(=Cc2cc(Br)cc(Br)c2)C(=O)N1n1c(-c2ccccc2)nc2ccccc2c1=O` ; response: value
Reply: > 100 µM (inactive)

Query: Param readout = GI50; param system = T47D; param query = c1ccc(C2SCc3nc4cc5ccccc5cc4n32)cc1 (stereo not given) ; response: value
Reply: > 100 µM (inactive)

Query: Param readout = GI50; param system = T47D; param query = `O=C1C(Cl)=C(N2CCC[C@H]2CO)C(=O)c2c(O)ccc(O)c21` ; response: value
Reply: 2.11 µM (inactive)

Query: Param readout = GI50; param system = T47D; param query = `Cc1c(C)c(S(=O)(=O)N(CCCCCCN)OCCCN)c(C)c2c1OC(C)(C)CC2` ; response: value
Reply: 12.1 µM (inactive)

Query: Param readout = GI50; param system = T47D; param query = Cc1ccc2c(c1)Nc1cc(C(F)(F)F)ccc1[PH]2=O (stereo not given) ; response: value
Reply: 27.6 µM (inactive)

Query: Param readout = GI50; param system = T47D; param query = Cc1ccc(O)c(C2=CC(c3cccc(Br)c3)SC(=N)N2)c1 (stereo not given) ; response: value
Reply: 26.5 µM (inactive)

Query: Param readout = GI50; param system = T47D; param query = `Cc1nc2ccc(Br)cc2c(=O)n1-c1nnc(C(C)(C)C)s1` ; response: value
Reply: > 10 µM (inactive)

Query: Param readout = GI50; param system = T47D; param query = CC(C)N(C(C)C)S(=O)(=O)C[C@]12CC[C@H](CC13OCC(CS(=O)(=O)c1ccccc1)O3)C2(C)C (stereo not given in full) ; response: value
Reply: 27.1 µM (inactive)

Query: Param readout = GI50; param system = T47D; param query = `CCOC(=O)c1nc2ccc(C(F)(F)F)cc2nc1NCc1ccc(OC)cc1` ; response: value
Reply: 80.7 µM (inactive)

Query: Param readout = GI50; param system = T47D; param query = `O=C(N[C@H]1CCC[C@H]1C(=O)Nc1ccc(C(F)(F)F)cc1)OCc1ccccc1` ; response: value
Reply: > 100 µM (inactive)

Query: Param readout = GI50; param system = T47D; param query = `O=C(CN1C(=O)c2ccccc2C1=O)NC1(C(=O)O)CCCC1` ; response: value
Reply: > 100 µM (inactive)

Query: Param readout = GI50; param system = T47D; param query = `O=S(=O)(O)c1ccc(-c2nnc(-c3ccccn3)nc2-c2ccc(S(=O)(=O)O)o2)o1` ; response: value
Reply: > 100 µM (inactive)

====

Assignment: determine reported GI50 for the given compounds.
# System: CAKI-1
# ASSAY REMARKS: NCI tumour cell line growth inhibition, 48 h
Calls of active or inactive are those of the source. No stated cut-off is given here; in the data, active = GI50 up to about 1.1 µM and inactive = higher.

Query: Param readout = GI50; param system = CAKI-1; param query = `[N-]=[N+]=NC1=C(N=[N+]=[N-])c2cccc3cccc(c23)C1=O` ; response: value
Reply: > 100 µM (inactive)

Query: Param readout = GI50; param system = CAKI-1; param query = `COP(=O)(OC)[C@H](O)[C@H]1C[C@@H]1c1ccccc1` ; response: value
Reply: > 100 µM (inactive)

Query: Param readout = GI50; param system = CAKI-1; param query = `COc1cc2c(c(OC)c1OC)C(=O)[C@@H]1[C@H]2N1C(=O)NCCCl` ; response: value
Reply: 56.8 µM (inactive)

Query: Param readout = GI50; param system = CAKI-1; param query = `CCC1(COC(NC(=O)c2ccccc2)(C(F)(F)F)C(F)(F)F)COC1` ; response: value
Reply: > 100 µM (inactive)

Query: Param readout = GI50; param system = CAKI-1; param query = N#CC(c1ccc(Cl)cc1)c1cccc(C(C#N)c2ccc(Cl)cc2)n1 (centres undefined) ; response: value
Reply: 16.9 µM (inactive)

Query: Param readout = GI50; param system = CAKI-1; param query = `Cc1nn2c(=O)n(-c3cccc(-n4nnc5c(-c6ccccc6)c(C)nn5c4=O)c3C)nnc2c1-c1ccccc1` ; response: value
Reply: 39.4 µM (inactive)

Query: Param readout = GI50; param system = CAKI-1; param query = `CC(C)(C)C1=CC(=N/N=c2\scc(-c3ccccc3)n2-c2ccccc2)C=C(C(C)(C)C)C1=O` ; response: value
Reply: > 100 µM (inactive)

Query: Param readout = GI50; param system = CAKI-1; param query = `O=C1C(Cl)=C(N2CCC[C@H]2CO)C(=O)c2c(O)ccc(O)c21` ; response: value
Reply: 1.66 µM (inactive)

Query: Param readout = GI50; param system = CAKI-1; param query = `COC(=O)c1ccc(NCC2=C(Br)C(=O)C=CC2=O)cc1Cl` ; response: value
Reply: 26.9 µM (inactive)

Query: Param readout = GI50; param system = CAKI-1; param query = `COc1cc([C@@H]2c3cc4c(cc3[C@@H](NCCNCCO)[C@H]3COC(=O)[C@H]23)OCO4)cc(OC)c1O` ; response: value
Reply: 2.83 µM (inactive)

Query: Param readout = GI50; param system = CAKI-1; param query = `CCc1nc2ccc(C(F)(F)F)cc2[nH]c1=O` ; response: value
Reply: 80.7 µM (inactive)

Query: Param readout = GI50; param system = CAKI-1; param query = `O=C1c2c(Cl)c(Cl)c(Cl)c(Cl)c2C(=O)N1CCN(c1c(Cl)ssc1=O)c1c(Cl)ssc1=O` ; response: value
Reply: 17.5 µM (inactive)

Query: Param readout = GI50; param system = CAKI-1; param query = `CC(C)CC(=O)NS(=O)(=O)c1ccccc1` ; response: value
Reply: > 100 µM (inactive)

Query: Param readout = GI50; param system = CAKI-1; param query = `Cc1nnc2ccccc2c1O` ; response: value
Reply: > 100 µM (inactive)

Query: Param readout = GI50; param system = CAKI-1; param query = O=C1N(c2ccccc2)C(=O)C2(SC=NN2Cc2ccccc2)N1c1ccccc1 (centres undefined) ; response: value
Reply: > 100 µM (inactive)

Query: Param readout = GI50; param system = CAKI-1; param query = `C=C(CN(C)C)C(=O)c1ccc(C(=O)C(=C)CN(C)C)cc1` ; response: value
Reply: > 100 µM (inactive)

Query: Param readout = GI50; param system = CAKI-1; param query = O=C1CSC(c2ccccc2O)N1c1nc2cc3sc(N4C(=O)CSC4c4ccccc4O)nc3cc2s1 (centres undefined) ; response: value
Reply: 37.4 µM (inactive)

Query: Param readout = GI50; param system = CAKI-1; param query = CC(O)(C(=O)N(O)c1ccc(Cl)cc1)c1ccc(Cl)cc1 (centres undefined) ; response: value
Reply: 23.9 µM (inactive)

Query: Param readout = GI50; param system = CAKI-1; param query = `Cc1ccc(NC2=NCCO2)c2c1CCC2` ; response: value
Reply: > 100 µM (inactive)

Query: Param readout = GI50; param system = CAKI-1; param query = Cc1nn(C(=O)Cc2ccccc2)c2c1C(c1ccc(/C=C/c3ccccc3)cc1)SC(=N)N2 (centres undefined) ; response: value
Reply: > 100 µM (inactive)

Query: Param readout = GI50; param system = CAKI-1; param query = CC(C)(C)[Si](C)(C)OCC#C[C@@]1(O)CCCCC1CC(Sc1ccccc1)Sc1ccccc1 (some centres undefined) ; response: value
Reply: 10.7 µM (inactive)

Query: Param readout = GI50; param system = CAKI-1; param query = `O=C(Nc1ccc(Cl)cc1)c1cc(S(=O)(=O)Nc2n[nH]c(Nc3ccc4ccccc4c3)n2)c(SSc2cc(Cl)c(C(=O)Nc3ccc(Cl)cc3)cc2S(=O)(=O)Nc2n[nH]c(Nc3ccc4ccccc4c3)n2)cc1Cl` ; response: value
Reply: 19.1 µM (inactive)

Query: Param readout = GI50; param system = CAKI-1; param query = `CNC(=O)N(CCC#N)CCN(CCN(C(=O)NC)c1ccccc1)C(=O)NC` ; response: value
Reply: > 100 µM (inactive)

Query: Param readout = GI50; param system = CAKI-1; param query = CCCCCN1C(=O)C(Cc2ccccc2)N=C(c2ccc(O)cc2)c2cc(Cl)ccc21 (centres undefined) ; response: value
Reply: 13.8 µM (inactive)

Query: Param readout = GI50; param system = CAKI-1; param query = CC(=O)NC(Cc1c[nH]c2ccccc12)C(=O)O (centres undefined) ; response: value
Reply: > 100 µM (inactive)

Query: Param readout = GI50; param system = CAKI-1; param query = `O=C1CSC(=O)/C1=C\NNc1nc2ccccc2o1` ; response: value
Reply: 23.9 µM (inactive)

Query: Param readout = GI50; param system = CAKI-1; param query = `COC(=O)c1ccccc1/C=C1\Cc2cc(C)c(C)cc2C1=O` ; response: value
Reply: > 100 µM (inactive)

Query: Param readout = GI50; param system = CAKI-1; param query = O=C(NC(c1ccccc1)C(O)C(=O)OCc1ccc2c(c1)C(=O)c1ccccc1C2=O)c1ccccc1 (centres undefined) ; response: value
Reply: 8.65 µM (inactive)

Query: Param readout = GI50; param system = CAKI-1; param query = `N#Cc1nc(Nc2ccc([N+](=O)[O-])cc2)sc1N` ; response: value
Reply: 11.9 µM (inactive)

Query: Param readout = GI50; param system = CAKI-1; param query = `O=C1/C(=C\c2ccc([N+](=O)[O-])cc2)CS(=O)(=O)C/C1=C/c1ccc([N+](=O)[O-])cc1` ; response: value
Reply: 1.4 µM (inactive)

Query: Param readout = GI50; param system = CAKI-1; param query = `CC(C)[Si](OC1=C(C(=O)Nc2ccccc2Cl)CCCCC1)(C(C)C)C(C)C` ; response: value
Reply: > 100 µM (inactive)

Query: Param readout = GI50; param system = CAKI-1; param query = `CN(C)CCNC(=O)c1ccc2nc3c(nc2c1)C(=O)c1ccccc1-3` ; response: value
Reply: > 100 µM (inactive)

Query: Param readout = GI50; param system = CAKI-1; param query = `Cc1ccc(-c2nnc(-c3nn(-c4ccccc4)c4nc5ccccc5nc34)o2)cc1` ; response: value
Reply: 11.7 µM (inactive)

Query: Param readout = GI50; param system = CAKI-1; param query = `C[C@]12CC[C@H]3[C@@H](CC=C4C[C@@H](O)CC[C@@]43C)[C@@H]1CC[C@@H]2N(CCO)CCO` ; response: value
Reply: 45.3 µM (inactive)

Query: Param readout = GI50; param system = CAKI-1; param query = `CC(C)[C@H]1CO[C@]2(C)[C@@H]3CN(Cc4ccccc4)C[C@@H]3C(=O)N12` ; response: value
Reply: > 100 µM (inactive)

Query: Param readout = GI50; param system = CAKI-1; param query = `Cc1nc(C)c(C(=O)NNC(N)=S)cc1C(=O)NNC(N)=S` ; response: value
Reply: > 100 µM (inactive)

Query: Param readout = GI50; param system = CAKI-1; param query = `Cc1cccc(C(C)C)c1NC(=O)C(=O)CC(=O)c1c(C)[n+]([O-])c2ccccc2[n+]1[O-]` ; response: value
Reply: 25.6 µM (inactive)

Query: Param readout = GI50; param system = CAKI-1; param query = `COc1ccc(/C=C2\CCCCCC2=O)cc1` ; response: value
Reply: > 100 µM (inactive)

Query: Param readout = GI50; param system = CAKI-1; param query = `Nc1[nH]c(=S)[nH]c(=O)c1/N=N/c1c(Br)cc(S(N)(=O)=O)cc1Br` ; response: value
Reply: > 100 µM (inactive)
